# tested.on: TtrR (09830, response regulator) (UniProt Q87N66)
# Sequence: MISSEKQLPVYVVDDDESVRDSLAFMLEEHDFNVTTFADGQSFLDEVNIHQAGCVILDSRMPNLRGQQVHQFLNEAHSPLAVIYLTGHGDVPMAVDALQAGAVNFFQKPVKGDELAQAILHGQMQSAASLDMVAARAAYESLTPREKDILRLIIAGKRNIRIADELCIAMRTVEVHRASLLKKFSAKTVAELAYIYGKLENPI
# assay.comment: EMSA
assay.metric: binding

{"sequence.content": "CGCCCTGAGCTAAAGATGCAAAGACAACCAAGCACAGAATCCAAAACTGAAGCAACCGTGGCGTTTTGTTCATGATGAGTCGAATCGTTCCTTCGAAAATAATGAAGCAAGAATAACAGCTACCTTCCGTAAACCACATTTGTTTTAGATCAACTTTGATCTGGGTATTATATCGACGTCGCAGCGCATTTCTCACAATGGAATCAGTCAGTTCAAATTCAACTAACAGCAGGTGAGTT (double strand) [PttrB-Δbox]", "measured.result": "no binding"}
{"sequence.content": "GCTGACTCACTTTAATTGTTATTAATATCTCCAAGTGTCTACTGTGATAGTGACTTGGGTGCTGTATTGTCGGCTTTGTCAATAACTAAAGGTATTGTGGATTTCCACATATTTAGAGGATGTGAAGAGCTGCTAAATGGCAGCTCTTCAGGTTTGGTTGTCTACTAAGCTTTGCGGATTTTGGCTGGTAATGATTGGCGAGCAGCGGCTCCTACCACCCAATCTAACAACACGCCTTTCCCTTCTCGG (double strand) [P09855 (PtsdB, tsdBA promoter)]", "measured.result": "binds"}
{"sequence.content": "CGCCCTGAGCTAAAGATGCAAAGACAACCAAGCACAGAATCCAAAACTGAAGCAACCGTGGCGTTTTGTTCATGATGAGTCGAATCGTTCCTTCGAAAATAATGAAGCAAGAATAACAGCTACCTTCCGTAAACCACATTTGTTTTAGATCAACTTTGATCTGGGTATGTGGAAATCCACTATATCGACGTCGCAGCGCATTTCTCACAATGGAATCAGTCAGTTCAAATTCAACTAACAGCAGGTGAGTT (double strand) [PttrB (ttrBCA promoter)]", "measured.result": "binds"}
{"sequence.content": "CAATACCTGCAATGGGGACCAACGCGGCACCCGCTGTAATGGCGCTAAGAAAGCGACGTTTGGTGGAATCCATAACTCACCTGCTGTTAGTTGAATTTGAACTGACTGATTCCATTGTGAGAAATGCGCTGCGACGTCGATATAGTGGATTTCCACATACCCAGATCAAAGTTGATCTAAAACAAATGTGGTTTACGGAAGGTAGCTGTTATTCTTGCTTCATTATTTTCGAAGGAACGATTCGACTCATC (double strand) [PttrS (ttrRS promoter)]", "measured.result": "binds"}
{"sequence.content": "GCTGACTCACTTTAATTGTTATTAATATCTCCAAGTGTCTACTGTGATAGTGACTTGGGTGCTGTATTGTCGGCTTTGTCAATAACTAAAGGTATTATATTTAGAGGATGTGAAGAGCTGCTAAATGGCAGCTCTTCAGGTTTGGTTGTCTACTAAGCTTTGCGGATTTTGGCTGGTAATGATTGGCGAGCAGCGGCTCCTACCACCCAATCTAACAACACGCCTTTCCCTTCTCGG (double strand) [PtsdB-Δbox]", "measured.result": "no binding"}

Data origin: paper PMC11293645
